assay.summary: Amount of fragrance ingredients retained on paper blotter after evaporation (ethanol extraction, GC-MS)
Type: physicochemical
condition.parameters: Table 6; fragrance TAK in C4; 480 min; 32°C
reported.property: amount of fragrance ingredient retained on blotter (percentage of the initial amount)

INSERT INTO assay_data (compound, measurement) VALUES
  ('O=C1CCCCCCCCCCCC(=O)OCCO1 [Ethylene Brassylate]', '100%'),
  ('CC(C=O)Cc1ccc(C(C)(C)C)cc1 (centres unmarked)', '52%'),
  ('CC/C=C\CCOC(=O)c1ccccc1O [Cis 3-hexenyl salicylate, Cis-3-hexenyl salicylate]', '65%'),
  ('C=C(C)[C@H]1CC=C(C)CC1', '1%'),
  ('C=CC(C)(O)CCC=C(C)C (centres unmarked)', '8%');

###

assay.summary: Amount of fragrance ingredients retained on paper blotter after evaporation (ethanol extraction, GC-MS)
Format: physicochemical
condition.parameters: Table 5; fragrance TAK in EdT1; 240 min; 32°C
reported.property: amount of fragrance ingredient retained on blotter (percentage of the initial amount) (%)

INSERT INTO results (compound, readout_qualifier, measurement) VALUES
  ('CC(C=O)Cc1ccc(C(C)(C)C)cc1 (centres unmarked)', '=', 65),
  ('CCCCCCOC(C)=O [Hexyl acetate, Hexyl Acetate]', '=', 1),
  ('CC/C=C\CCOC(=O)c1ccccc1O [Cis 3-hexenyl salicylate, Cis-3-hexenyl salicylate]', '=', 80),
  ('C=C(C)[C@H]1CC=C(C)CC1', '<', 1),
  ('O=C1CCCCCCCCCCCC(=O)OCCO1 [Ethylene Brassylate]', '=', 98),
  ('CC(=O)OC1CCCCC1C(C)(C)C (centres unmarked) [Verdox™, (2-tert-butylcyclohexyl) acetate]', '<', 1),
  ('C=CC(C)(O)CCC=C(C)C (centres unmarked)', '<', 1),
  ('C=CC(C)(CCC=C(C)C)OC(C)=O (centres unmarked) [Linalyl acetate]', '=', 2);

###

assay.summary: Amount of fragrance ingredients retained on paper blotter after evaporation (ethanol extraction, GC-MS)
Type: physicochemical
condition.parameters: Table 3; fragrance TAK in C1; 480 min; 32°C
reported.property: amount of fragrance ingredient retained on blotter (percentage of the initial amount) (%)

INSERT INTO assay_data (compound, readout_qualifier, measurement) VALUES
  ('CCCCCCOC(C)=O [Hexyl acetate, Hexyl Acetate]', '=', 2),
  ('C=C(C)[C@H]1CC=C(C)CC1', '<', 1),
  ('O=C1CCCCCCCCCCCC(=O)OCCO1 [Ethylene Brassylate]', '=', 79),
  ('C=CC(C)(O)CCC=C(C)C (centres unmarked)', '=', 3),
  ('C=CC(C)(CCC=C(C)C)OC(C)=O (centres unmarked) [Linalyl acetate]', '=', 7),
  ('CC(=O)OC1CCCCC1C(C)(C)C (centres unmarked) [Verdox™, (2-tert-butylcyclohexyl) acetate]', '=', 2),
  ('CC(C=O)Cc1ccc(C(C)(C)C)cc1 (centres unmarked)', '=', 51),
  ('CC/C=C\CCOC(=O)c1ccccc1O [Cis 3-hexenyl salicylate, Cis-3-hexenyl salicylate]', '=', 60);

###

Recorded amount of fragrance ingredient retained on blotter (percentage of the initial amount) for the following compounds
assay.summary: Amount of fragrance ingredients retained on paper blotter after evaporation (ethanol extraction, GC-MS)
Format: physicochemical
condition.parameters: Table 5; fragrance TAK in EdT1; 120 min; 32°C
reported.property: amount of fragrance ingredient retained on blotter (percentage of the initial amount)

INSERT INTO assay_data (compound, measurement) VALUES
  ('CC(C=O)Cc1ccc(C(C)(C)C)cc1 (centres unmarked)', '75%'),
  ('O=C1CCCCCCCCCCCC(=O)OCCO1 [Ethylene Brassylate]', '90%'),
  ('C=CC(C)(O)CCC=C(C)C (centres unmarked)', '1%'),
  ('C=C(C)[C@H]1CC=C(C)CC1', '<1%'),
  ('CC(=O)OC1CCCCC1C(C)(C)C (centres unmarked) [Verdox™, (2-tert-butylcyclohexyl) acetate]', '2%'),
  ('C=CC(C)(CCC=C(C)C)OC(C)=O (centres unmarked) [Linalyl acetate]', '6%'),
  ('CC/C=C\CCOC(=O)c1ccccc1O [Cis 3-hexenyl salicylate, Cis-3-hexenyl salicylate]', '85%'),
  ('CCCCCCOC(C)=O [Hexyl acetate, Hexyl Acetate]', '2%');
